These measurements were taken from PubChem BioAssay.

target: Torsin-1A-interacting protein 2 (Homo sapiens) (UniProt Q8NFQ8); experiment: small molecules binding lysate-expressed LULL1 – cell lysate, human LULL1 lysate, 635/667 nm fluorescence, primary screen (AID 1092); conditions: small-molecule microarray, hLULL1 lysate binding, 635 nm fluorescence; higher = more signal;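 also: probe is lysate of COS7 cells overexpressing human LULL1; score merges per-feature 667 nm fluorescence with signal-to-noise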
Sequence (Q8NFQ8 whole entry, looked up): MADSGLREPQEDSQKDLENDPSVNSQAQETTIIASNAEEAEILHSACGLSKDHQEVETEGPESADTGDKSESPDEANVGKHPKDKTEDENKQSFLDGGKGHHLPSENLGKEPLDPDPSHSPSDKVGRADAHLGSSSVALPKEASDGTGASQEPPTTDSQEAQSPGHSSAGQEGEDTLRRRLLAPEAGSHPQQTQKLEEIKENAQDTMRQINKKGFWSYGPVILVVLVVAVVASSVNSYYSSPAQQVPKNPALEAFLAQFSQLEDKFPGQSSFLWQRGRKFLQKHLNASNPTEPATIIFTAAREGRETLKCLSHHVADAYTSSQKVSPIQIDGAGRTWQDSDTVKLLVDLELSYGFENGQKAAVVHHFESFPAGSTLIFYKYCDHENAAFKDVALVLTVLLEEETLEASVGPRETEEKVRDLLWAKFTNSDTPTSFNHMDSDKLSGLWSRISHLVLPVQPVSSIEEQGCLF
Some molecules, each annotated with its measured composite z-score.

molecule	study.target	composite z-score
C=CCC(OC(C)=O)[C@@H]1[C@@H](N(Cc2cccc3ccccc23)C(=O)Cc2ccc(F)cc2)c2cc(OCCCO)ccc2N1C(=O)Cc1ccc(OC)cc1 (some centres undefined)	Torsin-1A-interacting protein 2 (Homo sapiens) (UniProt Q8NFQ8)	-0.0743
CN(C)C(=O)[C@@]1(CCC(=O)OC(C)(C)C)N=C(c2ccc(OCCCO)cc2)O[C@H]1c1ccccc1N=[N+]=[N-]	Torsin-1A-interacting protein 2 (Homo sapiens) (UniProt Q8NFQ8)	3.82
CC(=O)NCCCC[C@@H]1NC(=O)[C@H]2C[C@@H](C(=O)NCCCCCN)[C@@H](c3cccc(OCCO)c3)N2C1=O	Torsin-1A-interacting protein 2 (Homo sapiens) (UniProt Q8NFQ8)	2.23
COC(=O)c1ccc(OC)c(/C=C\CC(CCc2ccccc2)OC(C)=O)c1 (centres undefined)	Torsin-1A-interacting protein 2 (Homo sapiens) (UniProt Q8NFQ8)	0.324
CN1C(=O)C2C=CC(C(O)c3ccc(F)cc3)N(N3CCCCC3)C2C1=O (centres undefined)	Torsin-1A-interacting protein 2 (Homo sapiens) (UniProt Q8NFQ8)	2.78
C=C(CCCC)/C(=C/C[C@@H](OC(=O)c1ccncc1)c1ccccc1OCCO)c1cc(C(=O)OC)ccc1OC	Torsin-1A-interacting protein 2 (Homo sapiens) (UniProt Q8NFQ8)	2.75
CN(C)C(=O)[C@]1(Cc2ccccc2N=[N+]=[N-])N=C(c2ccc(OCCCO)cc2)O[C@@H]1c1ccccc1CN=[N+]=[N-]	Torsin-1A-interacting protein 2 (Homo sapiens) (UniProt Q8NFQ8)	3.51
CCOC(=O)C[C@H]1[C@H](OC(=O)c2cc3ccccc3oc2=O)[C@@H](NC(=O)c2ccc3ccccc3n2)c2cc(OCCCO)ccc2N1C(=O)c1ccc2ccccc2n1	Torsin-1A-interacting protein 2 (Homo sapiens) (UniProt Q8NFQ8)	0.648
O=C1OCCC=C[C@H]2OC34C=CCN(Cn5nnc6ccccc65)C(=O)[C@H]3N(CCCCCO)C(=O)[C@@H]4C12 (some centres undefined)	Torsin-1A-interacting protein 2 (Homo sapiens) (UniProt Q8NFQ8)	1.43
C=C(/C(=C/C[C@@H](OC(=O)c1ccncc1)c1cccc(OCCO)c1)c1cc(C(=O)OC)ccc1OC)C(C)C	Torsin-1A-interacting protein 2 (Homo sapiens) (UniProt Q8NFQ8)	1.54
COC(=O)[C@@]1(Cc2ccc(OC)cc2)[C@H]2c3cc(C(=O)N(C)C)n(Cc4cc(F)c(F)c(F)c4)c3C[C@H]2CN1C(=O)c1ccccc1	Torsin-1A-interacting protein 2 (Homo sapiens) (UniProt Q8NFQ8)	3.44
C[C@@H]1ON(c2ccccc2)[C@H](c2ccccc2)[C@H]1C(=O)N1C(=O)OC[C@H]1Cc1ccccc1	Torsin-1A-interacting protein 2 (Homo sapiens) (UniProt Q8NFQ8)	0.786
CC(C)C[C@@H]1NC(=O)[C@@H]2C[C@H](C(=O)NCCCC[N+](C)(C)C)[C@H](c3cccc(OCCO)c3)N2C1=O	Torsin-1A-interacting protein 2 (Homo sapiens) (UniProt Q8NFQ8)	0.622
CC(C)CCC[C@@H](C)[C@H]1CC[C@@]2(C)C3=C(CC[C@]12C)[C@@]1(C)CC[C@H](OC(=O)c2ccc(N)cc2)C(C)(C)C1CC3 (some centres undefined)	Torsin-1A-interacting protein 2 (Homo sapiens) (UniProt Q8NFQ8)	-0.0362
C=CCC(OC(C)=O)[C@@H]1[C@@H](N(Cc2ccc(-c3ccccc3)cc2)C(=O)Cc2ccc(OC)cc2)c2cc(OCCCO)ccc2N1C(=O)c1ccc(-c2ccccc2)cc1 (some centres undefined)	Torsin-1A-interacting protein 2 (Homo sapiens) (UniProt Q8NFQ8)	0.182
COCCOC(=O)N1C(=O)[C@@]2(c3cc(C#CCCO)ccc31)[C@H](C(=O)NC[C@H](O)c1ccccc1)[C@H]1C(=O)O[C@H](c3ccccc3)[C@H](c3ccccc3)N1[C@@H]2c1ccccc1OCCO	Torsin-1A-interacting protein 2 (Homo sapiens) (UniProt Q8NFQ8)	2.62
O=C1N(CCS(=O)(=O)c2ccccc2)c2ccccc2[C@H]2OC(c3ccc(OCCCO)cc3)=N[C@@]12CCS(=O)(=O)c1ccccc1	Torsin-1A-interacting protein 2 (Homo sapiens) (UniProt Q8NFQ8)	3.1
CC(C)(C)OC(=O)CC[C@]1(C(=O)O)COC(c2ccc(OCCCO)cc2)=N1	Torsin-1A-interacting protein 2 (Homo sapiens) (UniProt Q8NFQ8)	1.29
COc1ccc(C(=O)Nc2ccc3c(c2)[C@]2(O[C@@H](CCO)[C@H]([Si](C)(C)c4ccc(OC)cc4)[C@H]2C)C(=O)N3Cc2ccccc2)cc1	Torsin-1A-interacting protein 2 (Homo sapiens) (UniProt Q8NFQ8)	0.468
